Give EC50 for every item shown.
tested system: rat mGlu2 receptor (Rattus norvegicus (Rat), UniProt P31421)
Sequence (P31421 19-872): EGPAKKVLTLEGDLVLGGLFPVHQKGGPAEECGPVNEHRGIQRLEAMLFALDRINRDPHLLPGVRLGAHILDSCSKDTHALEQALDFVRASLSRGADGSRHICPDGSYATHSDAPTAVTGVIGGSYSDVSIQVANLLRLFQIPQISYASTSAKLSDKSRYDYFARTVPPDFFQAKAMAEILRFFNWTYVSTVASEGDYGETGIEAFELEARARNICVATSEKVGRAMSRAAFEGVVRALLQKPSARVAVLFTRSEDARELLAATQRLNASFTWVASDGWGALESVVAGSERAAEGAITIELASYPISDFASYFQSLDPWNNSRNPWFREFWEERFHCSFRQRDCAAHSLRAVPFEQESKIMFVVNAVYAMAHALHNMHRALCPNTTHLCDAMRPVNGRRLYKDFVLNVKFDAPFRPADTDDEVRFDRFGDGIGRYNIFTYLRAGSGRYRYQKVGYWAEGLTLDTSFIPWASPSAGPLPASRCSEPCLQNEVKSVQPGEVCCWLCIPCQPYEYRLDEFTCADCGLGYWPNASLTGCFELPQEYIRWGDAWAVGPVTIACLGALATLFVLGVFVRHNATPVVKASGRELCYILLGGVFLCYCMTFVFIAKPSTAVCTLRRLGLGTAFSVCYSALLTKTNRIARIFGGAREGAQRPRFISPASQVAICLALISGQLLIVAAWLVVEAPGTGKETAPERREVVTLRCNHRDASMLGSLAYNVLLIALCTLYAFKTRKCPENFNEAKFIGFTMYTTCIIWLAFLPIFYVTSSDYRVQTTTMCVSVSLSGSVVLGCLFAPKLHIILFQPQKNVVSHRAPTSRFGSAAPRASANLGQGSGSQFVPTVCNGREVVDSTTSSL
assay: mGlu2 in vitro GIRK thallium flux assay
Format: cell-based
condition notes: mGlu2 EC50 (μM) (60 min), NAM; 60 min compound incubation; EC80 glutamate; HEK-293 GIRK cells

Provide each entry's EC50 from the list below.
1. Cc1nc(-c2cccc(-c3ccc(F)c(C(=O)O)c3)c2)cs1
2. Cc1cc(-c2ccoc2)nc(-c2cccc(-c3cc(F)cc(C(=O)O)c3)c2)n1

> 10 µM
0.31 µM

Provide each entry's EC50 from the list below.
1. O=C(O)c1cccc(-c2cccc(-c3nc(-c4ccccc4)n(-c4cccc5ccccc45)n3)c2)c1
2. O=C(O)c1cc(-c2cccc(-c3csc(-c4cc5ccccc5o4)n3)c2)ccc1F

1. > 10 µM
2. 1.93 µM

Provide each entry's EC50 from the list below.
1. O=C(O)c1cc(-c2cccc(-c3csc(-c4cc5ccccc5s4)n3)c2)ccc1F
2. O=C(O)c1ccc(-c2cccc(-c3csc(-c4ccccc4)n3)c2)cc1Cl

["1.92 µM", "> 10 µM"]

Provide each entry's EC50 from the list below.
1. O=C(O)c1cccc(-c2cccc(-c3cc(-c4ccccc4)on3)c2)c1
2. CC(C)n1nc(-c2cccc(-c3cccc(C(=O)O)c3)c2)nc1-c1ccccc1

> 30 µM
> 30 µM

====

Give EC50 for every item shown.
tested system: UniProtKB P31421
assay: mGlu2 in vitro GIRK thallium flux assay
Type: cell-based
condition notes: NAM; 2.5 min compound incubation; EC80 glutamate; HEK-293 GIRK cells; read-out: mGlu2 EC50 (μM) (2.5 min)

Reference set, count: 3
Cc1cc(-c2cccc(C3CC(=O)Nc4cc(NC(=O)OCc5ccccc5)ccc4N3)c2)cc(C)n1 (racemic)
> 10 µM
NS(=O)(=O)c1cccc(-c2cn(-c3nc(-c4ccc(C(F)(F)F)nc4)cc(C(F)(F)F)n3)cn2)c1
> 10 µM
O=C(O)c1cc(-c2csc(-c3ccccc3)n2)ccc1F
> 10 µM

# return recorded EC50 for entry O=C(O)c1cccc(-c2cccc(-c3noc(-c4ccccc4)n3)c2)c1
1.33 µM

====

tested system: rat mGlu2 receptor (Rattus norvegicus (Rat), UniProt P31421)
assay: mGlu2 in vitro GIRK thallium flux assay
Type: cell-based
condition notes: read-out: mGlu2 EC50 (μM) (60 min); NAM; 60 min compound incubation; EC80 glutamate; HEK-293 GIRK cells
value type: EC50 (µM)
Answers are plain numbers, in µM.

Cc1cc2c(cc1C(F)(F)F)NC(=O)CC(c1cccc(C#CCO)c1)=N2 [Example 203]
0.02

Provide each entry's EC50 from the list below.
1. O=C1CC(c2ccnc(-c3ccccc3F)c2)=Nc2ccc(C(F)(F)F)cc2N1 [Example 200]
2. O=C1CC(c2ccnc(Cl)c2)=Nc2ccc(C(F)(F)F)cc2N1 [Example 189]

1. 0.22
2. 0.08

# return recorded EC50 for entry Cc1cc(C)cc(-c2cc(C(F)(F)F)nc(-c3cccc(-c4ccc(F)c(C(=O)O)c4)c3)n2)c1 [Example 93]
1.6

====

tested system: rat mGlu2 receptor (Rattus norvegicus (Rat), UniProt P31421)
assay: mGlu2 in vitro GIRK thallium flux assay
Assay type: cell-based
condition notes: mGlu2 EC50 (μM) (60 min), NAM; 60 min compound incubation; EC80 glutamate; HEK-293 GIRK cells
Protocol: All cell culture reagents were purchased from Invitrogen Corp. (Carlsbad, Calif.) unless otherwise noted. Compound activity at the group II (mGlu2 and mGlu3) mGlus was assessed using thallium flux through GIRK channels. […] Cell plates and compound plates were loaded onto a kinetic imaging plate reader (FDSS 6000 or 7000; Hamamatsu Corporation, Bridgewater, N.J.). […] Data were analyzed using Excel (Microsoft Corp, Redmond, Wash.). […]
Give EC50 for every item shown.

Reference set, count: 3
O=C(O)c1cccc(-c2cccc(-c3nsc(-c4ccccc4)n3)c2)c1
0.05 µM
O=C(O)c1cccc(-c2cccc(-c3csc(-c4ccc5ccccc5c4)n3)c2)c1
4.98 µM
Cc1cc2c(cc1C(F)(F)F)NC(=O)CC(c1cccc(C(N)=O)c1)N2 (single isomer, unassigned) [Example 168A]
> 10 µM

Provide each entry's EC50 from the list below.
1. NS(=O)(=O)c1cccc(-c2cccc(-c3csc(-c4ccccc4)n3)c2)c1
2. Cn1nc(-c2cccc(-c3cccc(C(=O)O)c3)c2)nc1-c1ccccc1
3. O=C(O)c1ccoc1-c1cccc(-c2nc(-c3ccccc3)n(-c3ccccc3)n2)c1
4. O=C(O)c1cccc(-c2cccc(-c3nc(-c4ccoc4)n(-c4ccccc4)n3)c2)c1
5. O=C(O)c1cc(F)cc(-c2cccc(-c3nsc(-c4ccccc4)n3)c2)c1

1. > 10 µM
2. 1.48 µM
3. > 30 µM
4. 3.78 µM
5. 0.1 µM

Provide each entry's EC50 from the list below.
1. N#Cc1cccc(C2CC(=O)Nc3cc(C(=O)O)ccc3N2)c1 (racemic)
2. O=C(O)c1cc(-c2cccc(-c3csc(-c4ccoc4)n3)c2)ccc1F
3. O=C(O)c1cc(-c2cccc(-c3csc(-c4cccs4)n3)c2)ccc1F
4. Cc1cc2c(cc1C(F)(F)F)NC(=O)CC(c1cccc(Oc3ncccn3)c1)N2 (racemic)
5. O=C(O)c1ccc(F)c(-c2cccc(-c3csc(-c4ccccc4)n3)c2)c1
6. O=C(O)c1cc(-c2cccc(-c3csc(-c4ccc(C(F)(F)F)nc4)n3)c2)ccc1F
7. O=C1CC(c2cccc(Br)c2)Nc2ccc(NC(=O)OCc3ccccc3)cc2N1 (racemic)

> 30 µM
2.5 µM
0.93 µM
1.56 µM
3.4 µM
0.85 µM
> 10 µM

Provide each entry's EC50 from the list below.
1. O=C(O)c1ccc(F)c(-c2cccc(-c3nsc(-c4ccccc4)n3)c2)c1
2. Cc1cc(-c2cccc(C3CC(=O)Nc4cc(NC(=O)OCc5ccccc5)ccc4N3)c2)cc(C)n1 (racemic)

0.11 µM
5.36 µM

Measured values drawn from patent US9969726B2 for this set.
